# assayed-target: Protein S100-A4 (Homo sapiens) (UniProt P26447)
# Sequence (P26447 whole entry, looked up): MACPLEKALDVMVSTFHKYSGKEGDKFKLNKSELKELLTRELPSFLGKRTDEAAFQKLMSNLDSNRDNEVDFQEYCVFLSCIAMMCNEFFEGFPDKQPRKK
# procedure-details: inhibitors of S100A4-myosin IIA peptide binding, primary screen, biochemical, fluorescence polarization, TAMRA-MyoIIA peptide (AID 652163)
# assay-setup: at 10.7 µM, stronger effect = higher value
The campaign covered roughly 360,000 compounds. About 500 (0.14%) were called active. Only a selection was taken, and actives are over-represented in it overall.
Give measured inhibition for each item. Keep answers brief.
Answers are plain numbers, in %.

Before answering, review these 3 worked examples.
CO[C@H]1CN(C)C(=O)c2cc(NC(=O)C3CC3)ccc2OC[C@H](C)N(C(=O)CN(C)C)C[C@H]1C 99.6
CO[C@@H]1CN(C)C(=O)c2cc(NC(=O)C3CCC3)ccc2OC[C@H](C)N(C(=O)CN(C)C)C[C@@H]1C 1.09
CCCNC(=O)N1[C@@H]2CN(C)c3ccccc3[C@@H]2[C@@H]1CO 7.1

Q: Bench note: what inhibition did `CC(C)CC#Cc1ccc([C@H]2[C@H]3CN(C(=O)c4cnccn4)CC(=O)N3[C@H]2CO)cc1` show?
Result: 1.39

* * *

# assayed-target: Protein S100-A4 (Homo sapiens) (UniProt P26447)
# procedure-details: inhibitors of S100A4-myosin IIA peptide binding, primary screen, biochemical, fluorescence polarization, TAMRA-MyoIIA peptide (AID 652163)
# assay-setup: at 10.7 µM, stronger effect = higher value
Hit rate of the full screen: of about 360,000 compounds, about 500 (0.14%) were called active. This is one part of a sample in which actives are shown more often than they occur.
attribute-measured: inhibition

Before answering, review these 7 worked examples.
COc1ccc(NC(=O)N[C@H]2CC[C@@H](CCNS(=O)(=O)c3cccc(Cl)c3)O[C@H]2CO)cc1 18.1% (inactive)
CO[C@@H]1CN(C)C(=O)c2ccc(NS(=O)(=O)c3cccc(F)c3)cc2OC[C@H](C)N(C(=O)Cc2cccnc2)C[C@@H]1C 0.669% (inactive)
CC(C)C#Cc1ccc2c(c1)O[C@@H](CN(C)C(=O)Nc1ccccc1)[C@H](C)CN([C@H](C)CO)S2(=O)=O 15.5% (inactive)
C[C@@H]1CN([C@@H](C)CO)C(=O)c2cc(NS(C)(=O)=O)ccc2O[C@@H]1CN(C)C(=O)Nc1ccccc1 -7.83% (inactive)
O=C(C[C@@H]1C=C[C@H](NC(=O)CN2CCOCC2)[C@@H](CO)O1)NCc1cccc(F)c1 12.6% (inactive)
CCCC(=O)Nc1ccc2c(c1)OC[C@H](C)N(CCC(F)(F)F)C[C@@H](C)[C@H](OC)CN(C)C2=O -10.8% (inactive)
CC(C)NC(=O)N(C)C[C@@H]1Oc2cc(C#C[C@H](C)O)ccc2S(=O)(=O)N([C@@H](C)CO)C[C@H]1C -1.62% (inactive)

Please turn your attention to the following entry.
Q: Bench note: what inhibition did `O=C(Nc1ccccc1F)N[C@H]1CC[C@@H](CCNS(=O)(=O)c2ccc(F)cc2)O[C@@H]1CO` show?
Result: -5.07% (inactive)

* * *

# assayed-target: Protein S100-A4 (Homo sapiens)
# procedure-details: inhibitors of S100A4-myosin IIA peptide binding, primary screen, biochemical, fluorescence polarization, TAMRA-MyoIIA peptide (AID 652163)
# assay-setup: at 10.7 µM, stronger effect = higher value
About 500 (0.14%) of roughly 360,000 compounds were called active. For the sample, actives were picked, then their nearest neighbours and some compounds at random.
Hi, to clarify the labels: Satisfied covers inhibition from -10% upward, Not satisfied covers anything below -10%.

Completed entries (count: 3):
CC(C)NC(=O)N(C)C[C@H]1Oc2ncc(-c3ccc(C(=O)N(C)C)cc3)cc2C(=O)N([C@H](C)CO)C[C@H]1C Satisfied
CCC(=O)N1CCCCN2[C@H](C1)[C@@H](c1ccc(/C=C/c3ccccc3)cc1)[C@@H]2CO Satisfied
Cc1noc(C)c1S(=O)(=O)Nc1ccc2c(c1)C(=O)N([C@H](C)CO)C[C@H](C)[C@@H](CN(C)C(=O)CCC(F)(F)F)OCCCC[C@H](C)O2 Not satisfied

Q: Has `C=C[C@H](OC)[C@@H](O)c1ccc(OC)c(O)c1` a recorded inhibition greater than or equal to -10%?
Result: Satisfied

Q: Has `Cc1cccc(CN(C)C[C@H]2OCc3cn(nn3)CCCC(=O)N([C@@H](C)CO)C[C@H]2C)c1` a recorded inhibition greater than or equal to -10%?
Result: Satisfied

Q: Has `CCCC#Cc1ccc([C@H]2[C@@H](CO)N3C(=O)CN(C(=O)c4ccncc4)C[C@@H]23)cc1` a recorded inhibition greater than or equal to -10%?
Result: Not satisfied

Q: Has `Cc1noc(C)c1S(=O)(=O)N(C)C[C@H]1OCc2cn(nn2)CCCC(=O)N([C@H](C)CO)C[C@H]1C` a recorded inhibition greater than or equal to -10%?
Result: Not satisfied

Q: Has `COc1cccc(-c2ccc3n(c2=O)C[C@H]2[C@H](CO)[C@@H](C(=O)NC4CCCC4)[C@@H]3N2C)c1` a recorded inhibition greater than or equal to -10%?
Result: Satisfied
